Where these numbers come from: ChEMBL document CHEMBL1148495

System: Liver microsomes
PROTOCOL_SUMMARY: Stability in rat liver microsomes
Type: ADME, Microsome
Assign Satisfied to entries whose Stability meets or exceeds 30%; assign Not satisfied to the rest.

Q) # bool: Stability of C[S+]([O-])c1ccc(C2=C(c3ccccc3)C(=O)OC2)cc1 (stereo not drawn) >= 30%
A) Satisfied

Q) # bool: Stability of C[S@@+]([O-])c1ccc(C2=C(c3ccccc3)C(=O)OC2)cc1 >= 30%
A) Satisfied

Q) # bool: Stability of Cc1ccc(-c2ncc(Cl)cc2-c2ccc(S(C)(=O)=O)cc2)cn1 >= 30%
A) Not satisfied

Q) # bool: Stability of Cc1ccc(-c2ncc(Cl)cc2-c2ccc([S+](C)[O-])cc2)cn1 (stereo not drawn) >= 30%
A) Not satisfied

Q) # bool: Stability of Cc1ccc(-c2ncc(Cl)cc2-c2ccc([S@@+](C)[O-])cc2)cn1 >= 30%
A) Not satisfied

Q) # bool: Stability of C[S@+]([O-])c1ccc(C2=C(c3ccccc3)C(=O)OC2)cc1 >= 30%
A) Satisfied

Q) # bool: Stability of CS(=O)(=O)c1ccc(C2=C(c3ccccc3)C(=O)OC2)cc1 >= 30%
A) Satisfied

Q) # bool: Stability of Cc1ccc(-c2ncc(Cl)cc2-c2ccc([S@+](C)[O-])cc2)cn1 >= 30%
A) Not satisfied
